- System: NCI-H1341 complex spheroids, percent test/control
- TEST METHOD NOTES: Anticancer human tumor NCI-H1341 cell line growth inhibition [AhR];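 also: spheroids exposed to agents for seven days before readout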
- TEST CONDITIONS: second compound 0.316 µM; first compound 0.0316 µM; active compounds read low
Param label: returns t when viability, T/C < 70%, returns f otherwise, including exact equality.

INSERT INTO measurements (molecule, category) VALUES
  ('Nc1ccn(C2OC(CO)C(O)C2(F)F)c(=O)n1 (stereo unspecified) + Cc1ccccc1N=Nc1ccc(NC(=O)c2ccnn2C)c(C)c1', 't'),
  ('COc1cc(C2c3cc4c(cc3C(OC3OC5COC(C)OC5C(O)C3O)C3COC(=O)C23)OCO4)cc(OC)c1O (stereo unspecified) + Cc1cncc(-c2nc(NCCc3c[nH]c4ccccc34)c3ncn(C(C)C)c3n2)c1', 'f'),
  ('Nc1ccccc1NC(=O)c1ccc(CNC(=O)OCc2cccnc2)cc1 + CC(CO)NC(=O)c1cc(-c2ccc(Cl)cc2)nn(-c2cnn(C)c2)c1=O', 'f'),
  ('CC(C)c1c(-c2ccccc2)nc2c(C#N)c[nH]n2c1=O + CC(CO)NC(=O)c1cc(-c2ccc(Cl)cc2)nn(-c2cnn(C)c2)c1=O', 'f'),
  ('Nc1ccccc1NC(=O)c1ccc(CNC(=O)OCc2cccnc2)cc1 + Cc1cncc(-c2nc(NCCc3c[nH]c4ccccc34)c3ncn(C(C)C)c3n2)c1', 'f'),
  ('CC1COCCN1c1cc(-c2ccnn2C)c2ccnc(-c3ccn[nH]3)c2n1 (stereo unspecified) + Cc1ccccc1N=Nc1ccc(NC(=O)c2ccnn2C)c(C)c1', 't');

----------
Collected viability, T/C values appear next to each entry.
- Test system: NCI-H1341 complex spheroids, percent test/control
- TEST METHOD NOTES: Anticancer human tumor NCI-H1341 cell line growth inhibition [AhR];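 also: spheroids exposed to agents for seven days before readout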
- TEST CONDITIONS: second compound 1 µM; first compound 0.001 µM; active compounds read low
ATTRIBUTE MEASURED: viability, T/C (%)

INSERT INTO measurements (molecule, u, value_reported) VALUES
  ('Cn1ncnc1C1c2n[nH]c(=O)c3cc(F)cc(c23)NC1c1ccc(F)cc1 (stereo unspecified) + CC(CO)NC(=O)c1cc(-c2ccc(Cl)cc2)nn(-c2cnn(C)c2)c1=O', '%', 95.4),
  ('CC[C@@]1(O)C(=O)OCc2c1cc1n(c2=O)Cc2cc3c(CN(C)C)c(O)ccc3nc2-1 + Cc1ccccc1N=Nc1ccc(NC(=O)c2ccnn2C)c(C)c1', '%', 83.5),
  ('CC[C@@]1(O)C(=O)OCc2c1cc1n(c2=O)Cc2cc3c(CN(C)C)c(O)ccc3nc2-1 + CC(CO)NC(=O)c1cc(-c2ccc(Cl)cc2)nn(-c2cnn(C)c2)c1=O', '%', 84),
  ('Cn1ncnc1C1c2n[nH]c(=O)c3cc(F)cc(c23)NC1c1ccc(F)cc1 (stereo unspecified) + Cc1cncc(-c2nc(NCCc3c[nH]c4ccccc34)c3ncn(C(C)C)c3n2)c1', '%', 79.8),
  ('Cn1ncnc1C1c2n[nH]c(=O)c3cc(F)cc(c23)NC1c1ccc(F)cc1 (stereo unspecified) + Cc1ccccc1N=Nc1ccc(NC(=O)c2ccnn2C)c(C)c1', '%', 94.2),
  ('CC[C@@]1(O)C(=O)OCc2c1cc1n(c2=O)Cc2cc3c(CN(C)C)c(O)ccc3nc2-1 + Cc1cncc(-c2nc(NCCc3c[nH]c4ccccc34)c3ncn(C(C)C)c3n2)c1', '%', 76.1);
